biological target: T1, His9G-tagged human CD27 recombinant protein (human, UniProt P26842 21-191); assay: SPR Biacore 4000, antibody captured on anti-human Fc, His9G-tagged CD27 injected, 1:1 fit;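 note: Double-referenced SPR (blank anti-Fc surface and buffer injection subtracted), KD derived from association and dissociation rate constants, with human and cynomolgus CD27 as analytes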
T1 construct: In-house, transient transfection of HEK293 cells; also called Human CD27/His
Parameter Kd: see the listing below.
Numeric answer only, unit nM assumed.

Here are 2 binders together with their reported answers.
hCD27.131A VH7VL6 huIgG1 (antibody, V domains shown) VH: EIQLVQSGAEVKKPGASVKISCKASGYTFTNYGMNWVKQAPGQGLKWMGWINTNTGEPTYAEEFKGRFTFTLDTSATTAYLEISSLRSEDTAVYYCAREGDAMDYWGQGTTVTVSS VL: EIVLTQSPATLSLSPGERATLSCSASSSVSYMHWYQQKPGQAPKRWIYDTSKLASGVPARFSGSGSGTDYSLTISSLEPEDFAVYYCQQWNSYPFTFGQGTKLEIK : 41.3
hCD27.131A VH6VL7 huIgG4 (antibody, V domains shown) VH: EIQLVQSGAEVKKPGASVKVSCKASGYTFTNYGMNWVKQAPGQGLKWMGWINTNTGEPTYAEEFKGRFTFTLDTSISTAYMELSSLRSEDTAVYYCAREGDAMDYWGQGTTVTVSS VL: EIVLTQSPATLSLSPGERATLSCSASSSVSYMHWYQQKPGQAPKRWIYDTSKLASGVPARFSGSGSGTSYSLTISSLEPEDFATYYCQQWNSYPFTFGQGTKLEIK : 108

For the next question, use this binder.
Enquiry: Returns the measured Kd for the input binder. Input: Mouse Human Chimera CD27 131A-hIgG1 (antibody, V domains shown, also called chimeric mouse-human hCD27.131A huIgG1) VH: QIQLVQSGPELKKPGETVKISCKASGYTFTNYGMNWVKQAPGKGLKWMGWINTNTGEPTYAEEFKGRFAFSLETSATTAYLQINNLKNEDTATYFCAREGDAMDYWGQGTSVTVSS VL: QIVLTQSPAIMSASPGEKVTMTCSASSSVSYMHWYQQKSGTSPKRWIYDTSKLASGVPARFSGSGSGTSYSLTISSMEAEDAATYYCQQWNSYPFTFGSGTKLEIK
Return: 29.2

Source: patent US20180086841A1
